Experiment: Selectivity index, ratio of CC50 for human MT4 cells to EC50 for HIV1 cells
Assay type: toxicity, cell-based
Conditions: read-out: Ratio CC50/EC50
readout.type: selectivity ratio
// return just the number, without any unit appended

QUERY: Which selectivity ratio is listed for Cc1cc(Br)ccc1/N=C(\OCCN1C(=O)c2ccccc2C1=O)SS/C(=N/c1ccc(Br)cc1C)OCCN1C(=O)c2ccccc2C1=O ?
RESULT: 44

QUERY: Which selectivity ratio is listed for O=C1c2ccccc2C(=O)N1CCO/C(=N\c1ccc(Cl)cc1)SS/C(=N/c1ccc(Cl)cc1)OCCN1C(=O)c2ccccc2C1=O ?
RESULT: 5500

Further cases:
QUERY: Which selectivity ratio is listed for O=C1c2ccccc2C(=O)N1CCO/C(=N\c1ccc(Br)cc1)SS/C(=N/c1ccc(Br)cc1)OCCN1C(=O)c2ccccc2C1=O ?
RESULT: 4200

====

Tested on: Human immunodeficiency virus 1
Experiment: Antiviral activity against HIV1 in MT4 cells assessed as reduction of virus induced cytopathogenicity by MTT method
Format: functional, organism-based
Conditions: Human immunodeficiency virus 1, MT4
readout.type: pEC50
pEC50 is defined as minus the log10 of a concentration measured in mol/L.

Solved cases below.
QUERY: Which pEC50 is listed for O=C1c2ccccc2C(=O)N1CCO/C(=N\c1ccc(F)cc1F)SS/C(=N/c1ccc(F)cc1F)OCCN1C(=O)c2ccccc2C1=O ?
RESULT: 7.30

QUERY: Which pEC50 is listed for COc1cccc(/N=C(\OCCN2C(=O)c3ccccc3C2=O)SS/C(=N/c2cccc(OC)c2)OCCN2C(=O)c3ccccc3C2=O)c1 ?
RESULT: 5.89

QUERY: Which pEC50 is listed for Cc1ccc(/N=C(\OCCN2C(=O)c3ccccc3C2=O)SS/C(=N/c2ccc(C)cc2)OCCN2C(=O)c3ccccc3C2=O)cc1 ?
RESULT: 7.40

QUERY: Which pEC50 is listed for O=C1c2ccccc2C(=O)N1CCO/C(=N\c1cccc(F)c1)SS/C(=N/c1cccc(F)c1)OCCN1C(=O)c2ccccc2C1=O ?
RESULT: 5.30

QUERY: Which pEC50 is listed for N#Cc1ccc(/N=C(\OCCN2C(=O)c3ccccc3C2=O)SS/C(=N/c2ccc(C#N)cc2)OCCN2C(=O)c3ccccc3C2=O)cc1 ?
RESULT: 7.00

Could you now consider this next molecule?
QUERY: Which pEC50 is listed for O=C1c2ccccc2C(=O)N1CCO/C(=N\c1ccc(Cl)cc1)SS/C(=N/c1ccc(Cl)cc1)OCCN1C(=O)c2ccccc2C1=O ?
RESULT: 7.70

====

System: Human immunodeficiency virus 1
Test: Antiviral activity against HIV1 in MT4 cells assessed as reduction of virus induced cytopathogenicity by MTT method
Assay type: functional, organism-based
Conditions: Human immunodeficiency virus 1, MT4
Documented pEC50 across a set of compounds
pEC50 is defined as minus the log10 of a concentration measured in mol/L.

Solved cases below.
QUERY: Which pEC50 is listed for O=C1c2ccccc2C(=O)N1CCO/C(=N\c1cccc(Br)c1)SS/C(=N/c1cccc(Br)c1)OCCN1C(=O)c2ccccc2C1=O ?
RESULT: 5.22

QUERY: Which pEC50 is listed for O=C1c2ccccc2C(=O)N1CCO/C(=N\c1cccc(Cl)c1)SS/C(=N/c1cccc(Cl)c1)OCCN1C(=O)c2ccccc2C1=O ?
RESULT: 6.40

Further cases:
QUERY: Which pEC50 is listed for O=C1c2ccccc2C(=O)N1CCO/C(=N\c1ccc(Cl)c(C(F)(F)F)c1)SS/C(=N/c1ccc(Cl)c(C(F)(F)F)c1)OCCN1C(=O)c2ccccc2C1=O ?
RESULT: 4.55

QUERY: Which pEC50 is listed for O=C1c2ccccc2C(=O)N1CCO/C(=N\c1cccc2ccccc12)SS/C(=N/c1cccc2ccccc12)OCCN1C(=O)c2ccccc2C1=O ?
RESULT: 5.10

QUERY: Which pEC50 is listed for Cc1ccc(/N=C(\OCCN2C(=O)c3ccccc3C2=O)SS/C(=N/c2ccc(C)c(Cl)c2)OCCN2C(=O)c3ccccc3C2=O)cc1Cl ?
RESULT: 6.70
